// cross-study collection: pIC50 for Galectin-3 (Homo sapiens)
One number for each entry, as −log10 of the molar value.

Please review the entries below; each comes with its answer.
CO[C@@H]1[C@@H](n2cc(-c3cc(F)c(F)c(F)c3)nn2)[C@@H](O)[C@@H](CO)O[C@H]1C(=O)N(Cc1ccnn1CC1CC1)[C@H]1CCCC[C@@H]1O ... 6.80
CCOC(=O)N1CCC(c2cn(C[C@H]3O[C@H](CO)[C@H](O)[C@H](n4cc(-c5cc(F)c(F)c(F)c5)nn4)[C@H]3OC)nn2)CC1 ... 7.36

Provide pIC50 values for the following items, in order.
1. CO[C@@H]1[C@@H](n2cc(-c3ccc(Cl)c(Cl)c3)nn2)[C@@H](O)[C@@H](CO)O[C@H]1C(=O)N(c1cc(Br)cc(C#N)c1)[C@H]1CC[C@@H]1O
2. CO[C@@H]1[C@@H](n2cc(-c3cc(F)c(F)c(F)c3)nn2)[C@@H](O)[C@@H](CO)O[C@H]1C(=O)N(Cc1ccsc1C)[C@H]1CCCC[C@@H]1O

[6.81, 6.68]

Provide pIC50 values for the following items, in order.
1. CO[C@@H]1[C@@H](n2cc(-c3cccc(F)c3)nn2)[C@@H](O)[C@@H](CO)O[C@H]1C(=O)N(c1cc(Cl)cc(C#N)c1)[C@H]1CCCC[C@@H]1O
2. CO[C@@H]1[C@@H](n2cc(-c3cc(F)cc(Br)c3)nn2)[C@@H](O)[C@@H](CO)O[C@H]1C(=O)N(c1cccc(Cl)c1)[C@H]1CCCC[C@@H]1O
3. CO[C@@H]1[C@@H](n2cc(-c3cc(F)c(F)c(F)c3)nn2)[C@@H](O)[C@@H](CO)O[C@@H]1CC1=NOC2(CCC(NC(=O)OC(C)(C)C)CC2)C1 (stereo partly shown)
4. CO[C@@H]1[C@@H](n2cc(-c3ccc(Br)c(F)c3F)nn2)[C@@H](O)[C@@H](CO)O[C@H]1C(=O)N(c1cc(Cl)cc(Cl)c1)[C@H]1CC[C@@H]1O
5. CO[C@@H]1[C@@H](n2cc(-c3cc(F)cc(Br)c3)nn2)[C@@H](O)[C@@H](CO)O[C@H]1C(=O)N(c1cc(Cl)cc(C#N)c1)[C@H]1CCC[C@@H]1O

7.36
7.07
7.16
6.74
7.23

Provide pIC50 values for the following items, in order.
1. CO[C@@H]1[C@@H](n2cc(-c3ccc(Cl)c(F)c3F)nn2)[C@@H](O)[C@@H](CO)O[C@@H]1CC1=NO[C@]2(CC[C@H](NC(C)=O)CC2)C1
2. CO[C@@H]1[C@@H](n2cc(-c3cc(F)c(F)c(F)c3)nn2)[C@@H](O)[C@@H](CO)O[C@@H]1Cc1cc(C2CCN(C(=O)N3CCCCC3)CC2)on1

7.21
6.85

Provide pIC50 values for the following items, in order.
1. COc1cc(F)c(F)cc1-c1cn([C@H]2[C@@H](O)[C@@H](CO)O[C@H](CC3CC(C4CCN(C(=O)OC(C)(C)C)CC4)=NO3)[C@@H]2O)nn1 (stereo partly shown)
2. CC(=O)O[C@@H]1[C@@H](n2cc(-c3cc(F)cc(F)c3)nn2)[C@@H](O)[C@@H](CO)O[C@H]1C(=O)N(Cc1ccccc1C(F)(F)F)[C@H]1CCCC[C@@H]1O
3. CO[C@@H]1[C@@H](n2cc(-c3cc(F)c(F)c(F)c3)nn2)[C@@H](O)[C@@H](CO)O[C@@H]1Cc1cc(C2CCN(C(=O)OC(C)(C)C)CC2)no1
4. CO[C@@H]1[C@@H](n2cc(-c3cc(F)c(F)c(F)c3)nn2)[C@@H](O)[C@@H](CO)O[C@@H]1CC1=NO[C@]2(CC[C@@H](C#N)CC2)C1
5. CO[C@@H]1[C@@H](n2cc(-c3cc(F)c(F)c(F)c3)nn2)[C@@H](O)[C@@H](CO)O[C@@H]1Cc1cc(C2CCN(C(=O)NC3CC3)CC2)on1
6. CO[C@@H]1[C@@H](n2cc(-c3cc(F)c(F)c(F)c3)nn2)[C@@H](O)[C@@H](CO)O[C@@H]1C[C@H]1CN(C2CCN(S(C)(=O)=O)CC2)C(=O)O1
7. COc1ccc(C2=NOC(C[C@H]3O[C@H](CO)[C@H](O)[C@H](n4cc(-c5cc(F)c(F)c(F)c5)nn4)[C@H]3O)C2)c(Cl)c1 (stereo partly shown)
8. CO[C@@H]1[C@@H](n2cc(-c3ccc(C)c(F)c3F)nn2)[C@@H](O)[C@@H](CO)O[C@@H]1Cc1cc(C(C)(C)O)no1

[6.31, 6.86, 7.12, 6.59, 7.38, 6.55, 5.95, 7.44]
